The measurements presented in this section are drawn from PubChem BioAssay.

# method description: reduction of polyQ htt aggregates in cells – imaging, exon1htt(103Q)mCFP cells, high-content imaging, primary screen (AID 483);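 further: compound exposure lasted 3 days before fixation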
# condition description: exon1htt(103Q)mCFP cell line, aggregate imaging, at 2 µM; stronger effect = higher value
Let's look at some compounds and their measured inhibition of aggregation.
Give your result in % as a bare value.

As a guide, the following entries are already answered.
>  <compound>
COc1ccccc1N(CC(=O)NCc1ccccn1)S(C)(=O)=O

>  <inhibition of aggregation (%)>
26.7

$$$$
>  <compound>
COc1ccc(OC)c(NC(=O)c2nnn(Cc3ccc(Br)cc3F)c2N)c1

>  <inhibition of aggregation (%)>
20.9

$$$$
>  <compound>
CC1CN(CC(O)COc2ccccc2C(C)(C)C)CC(C)O1 (stereo not drawn)

>  <inhibition of aggregation (%)>
-10.6

$$$$
>  <compound>
O=C(CSc1nc2ccccc2o1)Nc1ccccc1

>  <inhibition of aggregation (%)>
0.9

$$$$
>  <compound>
OCCNc1nc2ccc(Cl)cc2[nH]1

>  <inhibition of aggregation (%)>
19.6

$$$$
>  <compound>
O=C(Nc1nonc1NC(=O)C1CCCCC1)C1CCCCC1

>  <inhibition of aggregation (%)>
-7.6

$$$$

# input Look up inhibition of aggregation: `Cc1nnc(SCC(=O)N2CCC(C(=O)Nc3nccs3)CC2)n1Cc1ccccc1`
# output 8.5

# input Now try `C=C(C)Cn1c(-c2ccccc2)nc2ccccc21` .
# output -4.2

# input Now try `O=C(CSc1nnc2ccccn12)c1ccccc1` .
# output 2.2

# input Now try `CCN(CC)c1ccc2cc(-c3nc4ccccc4[nH]3)c(=O)oc2c1` .
# output 90.2

# input Now try `Cn1c(CCNC(=O)c2ccco2)nc2cc(NC(=O)C3CCCCC3)ccc21` .
# output 8.3

# input Now try `N#Cc1c2n(c(=S)n(-c3ccccn3)c1=O)CCCCC2` .
# output -14.8

# input Now try CC(=O)Nc1ccc(S(=O)(=O)NCC2CCC(C(=O)NCCCN3CCCC3=O)CC2)cc1 (stereo not drawn) .
# output 5.9

---

# method description: inhibitors of TNFa-induced NFkB p65 translocation, primary screen, imaging, HUVEC, MLSMR starter and 10KST1 sets (AID 438);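 further: compound added about 3h40 before a 20 min TNFalpha stimulation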
# condition description: HUVEC TNFa-induced p65 nuclear translocation; measured here: nuclei count (cytotoxicity indicator), at 2.08 µM
result type: cell count
Reply briefly: the number, and no unit.

>  <compound>
COC(=O)CCC(=O)Nc1cccc(Cl)c1

>  <cell count>
205

$$$$
>  <compound>
CCC(C)(C)NC(=O)C(c1ccco1)N(C(=O)Cn1nnc2ccccc21)c1ccc2c(c1)OCO2 (stereo not drawn)

>  <cell count>
497

$$$$
>  <compound>
CCOC(=O)C(NC(=O)OC(C)C)(Nc1nccs1)C(F)(F)F (stereo not drawn)

>  <cell count>
636

$$$$

The record that follows has no cell count shown yet.
# input Look up cell count: COc1ccccc1-c1nc2n(n1)C(c1ccc(Cl)cc1)C(C(N)=O)=C(C)N2 (stereo not drawn)
# output 313

---

Let's look at some compounds and their measured NADPH fluorescence slope.
# target of assay: Voltage-gated potassium channel subunit beta-2 (Rattus norvegicus) (UniProt P62483)
# Sequence (P62483 whole entry, looked up): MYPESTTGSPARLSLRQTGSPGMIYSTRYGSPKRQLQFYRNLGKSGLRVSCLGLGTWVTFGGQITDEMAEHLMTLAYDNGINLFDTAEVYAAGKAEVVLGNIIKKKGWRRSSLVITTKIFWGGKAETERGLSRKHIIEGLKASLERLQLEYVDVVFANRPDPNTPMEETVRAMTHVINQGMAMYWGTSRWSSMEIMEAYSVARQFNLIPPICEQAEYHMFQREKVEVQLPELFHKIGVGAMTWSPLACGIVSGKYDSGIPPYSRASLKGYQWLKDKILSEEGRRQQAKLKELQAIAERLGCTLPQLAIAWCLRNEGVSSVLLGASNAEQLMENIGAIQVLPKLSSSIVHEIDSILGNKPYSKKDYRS
# method description: enhancers of rat Kvbeta2 NADPH turnover – biochemical, NADPH fluorescence, primary screen (AID 623);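 further: fluorescence intensity change per second fitted from 20 to 320 s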
# condition description: Recombinant KvBeta, NADPH fluorescence decrease slope, 10 min; at 10 µM; stronger effect = lower value
Activity calls are given as the source filed them.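 Rule for the calls: active = NADPH fluorescence slope more negative than the mean of all samples by about 3 SD, 99.7% confidence; inactive = the rest.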

As a guide, the following entries are already answered.
>  <cpd smiles>
O=C(CCNS(=O)(=O)c1cccc2nsnc12)Nc1ccc2c(c1)OCCO2

>  <result type>
NADPH fluorescence slope

>  <assay result>
-0.00049 (inactive)

$$$$
>  <cpd smiles>
CCOC(=O)CN1C(=O)C(=O)c2cccc(C)c21

>  <result type>
NADPH fluorescence slope

>  <assay result>
-4.5e-05 (inactive)

$$$$

The record that follows has no NADPH fluorescence slope shown yet.
# input Look up NADPH fluorescence slope: `CCc1ccc(C=NC23CN4CN(CN(C4)C2)C3)s1`
# output 5.9e-05 (inactive)
